test.conditions: 303.15 K; 101.33 kPa; Liquid; Concentric cylinders viscometry
Returns YES if the recorded viscosity is greater than or equal to 0.7 mPa·s, and NO otherwise.

compound="CCC(C)CCC(C)CC (centres undefined) [3,6-dimethyloctane]" class=YES
compound="CCCCCCCCC(C)CC (centres undefined) [3-methylundecane]" class=YES
compound="CCCCC(C)CCC (centres undefined) [4-methyloctane]" class=NO
compound="CCCCCCCCCCCCCC(C)C [2-methylpentadecane]" class=YES
compound="CCCCCCC(C)C [2-methyloctane]" class=NO
compound="CCCCCCCCC(C)C [2-methyldecane]" class=YES
compound="CCCCCCCC(C)C [2-methylnonane]" class=YES
compound="CCC(C)CC(C)CC (centres undefined) [3,5-dimethylheptane]" class=NO
compound="CCCCCCCCCC(C)CCCCCC (centres undefined) [7-methylhexadecane]" class=YES

====

test.conditions: 363.15 K; 101.33 kPa; Liquid; Concentric cylinders viscometry
observed.property: viscosity (mPa·s)

molecule="CCCCCCCCC(C)C [2-methyldecane]" test_value=0.464
molecule="CCCCC(C)CCC (centres undefined) [4-methyloctane]" test_value=0.294
molecule="CCCCCCC(C)C [2-methyloctane]" test_value=0.315
molecule="CCC(C)CC(C)CC (centres undefined) [3,5-dimethylheptane]" test_value=0.319
molecule="CCC(C)CCC(C)CC (centres undefined) [3,6-dimethyloctane]" test_value=0.372
molecule="CCCCCCCCCCCCCC(C)C [2-methylpentadecane]" test_value=1
molecule="CCCCCCCCCC(C)CCCCCC (centres undefined) [7-methylhexadecane]" test_value=1.05
molecule="CCCCCCCCC(C)CC (centres undefined) [3-methylundecane]" test_value=0.543
molecule="CCCCCCCC(C)C [2-methylnonane]" test_value=0.388

====

Reported speed of sound by item:
test.conditions: 323.15 K; 101.33 kPa; Liquid; Pulse-echo method
observed.property: speed of sound (m/s)

compound="CCCCCCCCCC(C)CCCCCC (stereo unspecified)" unit_abbreviation=m/s test_value=1245.5
compound="CCC(C)CC(C)CC (stereo unspecified)" unit_abbreviation=m/s test_value=1081.4
compound=CCCCCCCCCCCCCC(C)C unit_abbreviation=m/s test_value=1231.6
compound="CCC(C)CCC(C)CC (stereo unspecified)" unit_abbreviation=m/s test_value=1117.2
compound=CCCCCCCCC(C)C unit_abbreviation=m/s test_value=1141
compound=CCCCCCC(C)C unit_abbreviation=m/s test_value=1081.2

====

test.conditions: 343.15 K; 101.33 kPa; Liquid; Concentric cylinders viscometry
Reported viscosity values follow for various compounds
observed.property: viscosity (mPa·s)

compound="CCC(C)CC(C)CC (stereo not drawn)" observed_property=viscosity test_value=0.386
compound="CCCCC(C)CCC (stereo not drawn)" observed_property=viscosity test_value=0.368
compound=CCCCCCC(C)C observed_property=viscosity test_value=0.381

====

test.conditions: 353.15 K; 101.33 kPa; Liquid; Vibrating tube method
Binary call on mass density: condition met from 700 kg/m3 upward, condition not met beneath that.

compound="CCCCCCCCCC(C)CCCCCC (centres undefined) [7-methylhexadecane]" class="condition met"
compound="CCCCCCCCCCCCCC(C)C [2-methylpentadecane]" class="condition met"
compound="CCCCCCC(C)C [2-methyloctane]" class="condition not met"
compound="CCCCC(C)CCC (centres undefined) [4-methyloctane]" class="condition not met"
compound="CCC(C)CC(C)CC (centres undefined) [3,5-dimethylheptane]" class="condition not met"

====

test.conditions: 333.15 K; 101.33 kPa; Liquid; Concentric cylinders viscometry
Recorded measurements of viscosity, one per entry
observed.property: viscosity (mPa·s)

compound="CCCCC(C)CCC (centres undefined)" observed_property=viscosity test_value=0.397
compound=CCCCCCCCC(C)C observed_property=viscosity test_value=0.647
compound="CCC(C)CCC(C)CC (centres undefined)" observed_property=viscosity test_value=0.506
compound=CCCCCCCCCCCCCC(C)C observed_property=viscosity test_value=1.55
compound=CCCCCCC(C)C observed_property=viscosity test_value=0.422
compound=CCCCCCCC(C)C observed_property=viscosity test_value=0.529
compound="CCCCCCCCCC(C)CCCCCC (centres undefined)" observed_property=viscosity test_value=1.66
compound="CCCCCCCCC(C)CC (centres undefined)" observed_property=viscosity test_value=0.771
compound="CCC(C)CC(C)CC (centres undefined)" observed_property=viscosity test_value=0.428

====

test.conditions: 373.15 K; 101.33 kPa; Liquid; Concentric cylinders viscometry
± gives the expanded uncertainty stated by the source.
observed.property: viscosity

molecule="CCCCCCCCC(C)CC (stereo not drawn)" observed_property=viscosity test_value="0.492 ± 0.012 mPa·s"
molecule=CCCCCCCCC(C)C observed_property=viscosity test_value="0.422 ± 0.011 mPa·s"
molecule=CCCCCCC(C)C observed_property=viscosity test_value="0.288 ± 0.008 mPa·s"
molecule="CCCCCCCCCC(C)CCCCCC (stereo not drawn)" observed_property=viscosity test_value="0.91 ± 0.05 mPa·s"
molecule=CCCCCCCCCCCCCC(C)C observed_property=viscosity test_value="0.88 ± 0.03 mPa·s"
molecule="CCC(C)CCC(C)CC (stereo not drawn)" observed_property=viscosity test_value="0.328 ± 0.008 mPa·s"
molecule=CCCCCCCC(C)C observed_property=viscosity test_value="0.355 ± 0.009 mPa·s"
molecule="CCCCC(C)CCC (stereo not drawn)" observed_property=viscosity test_value="0.261 ± 0.04 mPa·s"

====

Recorded speed of sound values for a group of compounds are listed next.
test.conditions: 323.15 K; 101.33 kPa; Liquid; Pulse-echo method
observed.property: speed of sound (m/s)

compound="CCCCCCCCC(C)CC (stereo not drawn)" observed_property="speed of sound" test_value=1176.6
compound=CCCCCCCC(C)C observed_property="speed of sound" test_value=1113.4
compound="CCCCC(C)CCC (stereo not drawn)" observed_property="speed of sound" test_value=1090.7

====

test.conditions: 343.15 K; 101.33 kPa; Liquid; Vibrating tube method
observed.property: mass density (kg/m3)

compound=CCCCCCCC(C)C test_value=688.1
compound="CCCCCCCCCC(C)CCCCCC (centres undefined)" test_value=746.2
compound=CCCCCCC(C)C test_value=675.1
compound=CCCCCCCCCCCCCC(C)C test_value=740
compound="CCC(C)CCC(C)CC (centres undefined)" test_value=699.6
compound="CCCCC(C)CCC (centres undefined)" test_value=679.3
compound=CCCCCCCCC(C)C test_value=700.5
compound="CCC(C)CC(C)CC (centres undefined)" test_value=686.3
compound="CCCCCCCCC(C)CC (centres undefined)" test_value=714.4

====

test.conditions: 363.15 K; 101.33 kPa; Liquid; Vibrating tube method
observed.property: mass density (kg/m3)

molecule="CCC(C)CCC(C)CC (stereo not drawn)" observed_property="mass density" unit_abbreviation=kg/m3 test_value=683.3
molecule=CCCCCCC(C)C observed_property="mass density" unit_abbreviation=kg/m3 test_value=658.2
molecule=CCCCCCCC(C)C observed_property="mass density" unit_abbreviation=kg/m3 test_value=672.1

====

test.conditions: 303.15 K; 101.33 kPa; Liquid; Pulse-echo method
observed.property: speed of sound (m/s)

compound="CCCCCCCCCC(C)CCCCCC (centres undefined)" observed_property="speed of sound" test_value=1317.7
compound="CCC(C)CCC(C)CC (centres undefined)" observed_property="speed of sound" test_value=1196.2
compound="CCCCC(C)CCC (centres undefined)" observed_property="speed of sound" test_value=1171.6
compound=CCCCCCC(C)C observed_property="speed of sound" test_value=1160.7
compound=CCCCCCCCCCCCCC(C)C observed_property="speed of sound" test_value=1303.8
compound="CCCCCCCCC(C)CC (centres undefined)" observed_property="speed of sound" test_value=1252.2
compound="CCC(C)CC(C)CC (centres undefined)" observed_property="speed of sound" test_value=1162
compound=CCCCCCCCC(C)C observed_property="speed of sound" test_value=1217.1
compound=CCCCCCCC(C)C observed_property="speed of sound" test_value=1191.3

====

speed of sound: recorded values
test.conditions: 283.15 K; 101.33 kPa; Liquid; Pulse-echo method
observed.property: speed of sound (m/s)

molecule="CCCCCCCCC(C)CC (centres undefined) [3-methylundecane]" unit_abbreviation=m/s test_value=1330.2
molecule="CCCCCCCC(C)C [2-methylnonane]" unit_abbreviation=m/s test_value=1271.4
molecule="CCCCCCC(C)C [2-methyloctane]" unit_abbreviation=m/s test_value=1242.2
molecule="CCCCCCCCC(C)C [2-methyldecane]" unit_abbreviation=m/s test_value=1295.5
molecule="CCC(C)CC(C)CC (centres undefined) [3,5-dimethylheptane]" unit_abbreviation=m/s test_value=1245.1
molecule="CCC(C)CCC(C)CC (centres undefined) [3,6-dimethyloctane]" unit_abbreviation=m/s test_value=1277.8
molecule="CCCCCCCCCCCCCC(C)C [2-methylpentadecane]" unit_abbreviation=m/s test_value=1378.7
molecule="CCCCCCCCCC(C)CCCCCC (centres undefined) [7-methylhexadecane]" unit_abbreviation=m/s test_value=1392.5
molecule="CCCCC(C)CCC (centres undefined) [4-methyloctane]" unit_abbreviation=m/s test_value=1254.9
